These entries and their values trace back to the supplement of paper PMC10065799.

phosphorylation enrichment values for the sequences below.
Test system: c-Abl (mouse)
EXPERIMENT: phosphorylation enrichment, bacterial display (enrichment ratio); higher = better substrate or ligand; peptides without Tyr show the background

Some sequences with known phosphorylation enrichment results, for comparison:
YEEDSYVTRSQ [RET_Y905_K907T] ... 0.69
SIYKDYYRYNF [PLA2G2D_Y85] ... 5.64
LQTFRYHGHSM [PDHA1_Y289_YF] ... 0.775
VHNLDYYKQTT [FGFR3_Y647_K650Q] ... 0.555
QELRRYLKSGI [MICA_Y194_V199I] ... 0.402
ERLWDYGMSSS [F8_Y1728] ... 0.767

// moving on: another record for phosphorylation enrichment
Qu. Could you tell me which phosphorylation enrichment is on file for NQDRTYFERVR [SPEN_Y632_S635R_YF] ?
Ans. 0.538

====

TARGET OR SYSTEM: FGFR1 (UniProt P11362)
Sequence (P11362 whole entry, looked up): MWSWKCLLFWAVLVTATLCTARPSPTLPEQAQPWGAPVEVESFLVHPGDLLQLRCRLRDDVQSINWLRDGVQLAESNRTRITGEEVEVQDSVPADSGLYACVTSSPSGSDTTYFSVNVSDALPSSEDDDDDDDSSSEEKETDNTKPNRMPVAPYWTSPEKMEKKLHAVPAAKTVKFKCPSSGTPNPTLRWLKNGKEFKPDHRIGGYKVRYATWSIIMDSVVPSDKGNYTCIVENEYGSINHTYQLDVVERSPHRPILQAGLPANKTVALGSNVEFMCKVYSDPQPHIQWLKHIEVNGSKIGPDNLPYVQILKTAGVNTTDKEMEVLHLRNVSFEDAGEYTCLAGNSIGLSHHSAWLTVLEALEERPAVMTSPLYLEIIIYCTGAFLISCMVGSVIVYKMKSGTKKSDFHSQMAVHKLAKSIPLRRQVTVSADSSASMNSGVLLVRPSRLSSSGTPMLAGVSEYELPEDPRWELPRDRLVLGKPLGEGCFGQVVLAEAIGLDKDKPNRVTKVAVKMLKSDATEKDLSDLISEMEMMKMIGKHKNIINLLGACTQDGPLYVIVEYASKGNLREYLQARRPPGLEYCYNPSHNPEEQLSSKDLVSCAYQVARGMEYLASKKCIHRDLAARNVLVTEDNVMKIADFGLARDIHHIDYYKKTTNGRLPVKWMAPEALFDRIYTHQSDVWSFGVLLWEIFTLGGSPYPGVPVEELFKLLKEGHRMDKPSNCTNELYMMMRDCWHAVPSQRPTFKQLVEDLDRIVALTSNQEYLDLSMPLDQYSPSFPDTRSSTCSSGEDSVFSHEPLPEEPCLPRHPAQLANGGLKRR
EXPERIMENT: phosphorylation enrichment, bacterial display (enrichment ratio); higher = better substrate or ligand; peptides without Tyr show the background
ENDPOINT: phosphorylation enrichment
I'd appreciate a reply containing only the number, no unit.

Qu. Could you tell me which phosphorylation enrichment is on file for LVMFFYAIFGM [SCN1A_Y1684_I1683F] ?
Ans. 0.898

Qu. Here is the next sequence: CTAIHYNFMCN [TP53_Y234_T231A_YF]
Ans. 0.598

Qu. Here is the next sequence: MRAIIYNSSTA [PLEKHA7_Y243_L241I]
Ans. 0.554

Qu. Here is the next sequence: KLPDAYERLIL [G6PD_Y437]
Ans. 0.992

Qu. Here is the next sequence: WASGIYFVPKG [APBB1IP_Y340_R335W_YF]
Ans. 4.77

Qu. Here is the next sequence: ESMLRYDVYGG [STOX1_Y607_E608D]
Ans. 0.482

Qu. Here is the next sequence: ANVIHYFPTQA [SLC25A4_Y81_R80H]
Ans. 0.487

Qu. Here is the next sequence: TARWEYMHSPS [CPOX_Y429]
Ans. 0.536

====

TARGET OR SYSTEM: FGFR3 (UniProt P22607)
Sequence (P22607 whole entry, looked up): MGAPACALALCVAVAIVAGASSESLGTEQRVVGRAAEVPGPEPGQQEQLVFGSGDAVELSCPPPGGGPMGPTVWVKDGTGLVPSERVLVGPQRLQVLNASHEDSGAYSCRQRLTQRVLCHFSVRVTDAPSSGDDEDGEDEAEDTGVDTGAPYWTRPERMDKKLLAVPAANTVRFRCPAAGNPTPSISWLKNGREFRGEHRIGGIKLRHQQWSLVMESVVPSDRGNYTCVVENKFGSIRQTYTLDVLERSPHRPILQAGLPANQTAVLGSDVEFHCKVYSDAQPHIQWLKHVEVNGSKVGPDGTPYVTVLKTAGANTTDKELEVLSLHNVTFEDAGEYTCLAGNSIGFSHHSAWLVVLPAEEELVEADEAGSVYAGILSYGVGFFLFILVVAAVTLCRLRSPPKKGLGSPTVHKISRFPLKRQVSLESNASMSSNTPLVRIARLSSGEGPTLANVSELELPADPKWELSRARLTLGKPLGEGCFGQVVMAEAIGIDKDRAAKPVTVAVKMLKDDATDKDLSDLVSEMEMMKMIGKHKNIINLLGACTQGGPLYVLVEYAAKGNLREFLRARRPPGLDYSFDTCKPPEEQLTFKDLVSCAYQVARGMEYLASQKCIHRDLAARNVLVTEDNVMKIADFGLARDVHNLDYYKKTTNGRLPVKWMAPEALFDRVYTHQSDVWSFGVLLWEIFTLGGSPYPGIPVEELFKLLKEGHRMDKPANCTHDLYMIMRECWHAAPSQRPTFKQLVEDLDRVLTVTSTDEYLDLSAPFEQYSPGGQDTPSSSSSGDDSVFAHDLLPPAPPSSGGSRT
EXPERIMENT: phosphorylation enrichment, bacterial display (enrichment ratio); higher = better substrate or ligand; peptides without Tyr show the background
Would you mind labelling by phosphorylation enrichment? At or over 0.8 is class 1, under is class 0.

Reference set (8 entries):
FFNSEYGELSE [FLT4_Y1337_YF] ... class 0
LTERGYSFVTT [ACTA1_Y200] ... class 1
LTVVIYVLVGR [EPHA3_Y561_I564V] ... class 0
TLGPFYPSRLF [CRYAA_Y18] ... class 0
EDASEYYENYI [PARP4_Y214_F215Y] ... class 1
KNRDVYSSDFF [USP24_Y2134_YF] ... class 0
PVKSEYSSIKL [NPC2_Y119_P120S] ... class 0
CTTIHYNFICN [TP53_Y234_M237I_YF] ... class 0

Qu. API: above_or_equal(metric=phosphorylation enrichment, cutoff=0.8) for item CRVEPYGENFN [APOA4_Y310_R305C]
Ans. class 1

====

TARGET OR SYSTEM: EPHB1 (UniProt P54762)
Sequence (P54762 whole entry, looked up): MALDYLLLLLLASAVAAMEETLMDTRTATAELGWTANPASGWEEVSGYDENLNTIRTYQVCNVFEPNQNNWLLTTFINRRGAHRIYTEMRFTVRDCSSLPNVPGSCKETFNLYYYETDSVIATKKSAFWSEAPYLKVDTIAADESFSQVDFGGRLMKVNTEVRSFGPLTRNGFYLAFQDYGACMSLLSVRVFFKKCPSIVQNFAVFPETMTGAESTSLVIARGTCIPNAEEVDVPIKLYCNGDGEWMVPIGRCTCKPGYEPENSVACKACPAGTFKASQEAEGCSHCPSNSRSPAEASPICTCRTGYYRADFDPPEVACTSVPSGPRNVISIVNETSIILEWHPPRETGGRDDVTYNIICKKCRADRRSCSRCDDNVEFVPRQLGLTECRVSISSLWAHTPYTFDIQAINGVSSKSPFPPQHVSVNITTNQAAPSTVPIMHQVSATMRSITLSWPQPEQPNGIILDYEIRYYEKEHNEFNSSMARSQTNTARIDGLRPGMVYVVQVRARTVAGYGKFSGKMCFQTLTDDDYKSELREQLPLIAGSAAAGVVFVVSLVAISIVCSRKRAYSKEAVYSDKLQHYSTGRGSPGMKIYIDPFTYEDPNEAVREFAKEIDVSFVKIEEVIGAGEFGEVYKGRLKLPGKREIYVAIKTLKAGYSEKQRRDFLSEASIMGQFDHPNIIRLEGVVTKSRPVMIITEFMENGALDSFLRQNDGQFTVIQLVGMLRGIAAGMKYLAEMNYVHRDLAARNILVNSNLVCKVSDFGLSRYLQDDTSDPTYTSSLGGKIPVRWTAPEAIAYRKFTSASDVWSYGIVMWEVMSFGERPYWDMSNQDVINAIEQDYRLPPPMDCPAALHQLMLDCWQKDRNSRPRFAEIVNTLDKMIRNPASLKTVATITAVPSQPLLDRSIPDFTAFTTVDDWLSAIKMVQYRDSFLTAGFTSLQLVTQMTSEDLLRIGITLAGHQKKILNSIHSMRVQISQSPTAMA
EXPERIMENT: phosphorylation enrichment, bacterial display (enrichment ratio); higher = better substrate or ligand; peptides without Tyr show the background
Would you mind labelling by phosphorylation enrichment? At or over 0.6 is satisfied, under is not satisfied.

LEAVSYSSPYA [RNLS_Y190_R193P] ... satisfied
KHTLSFVDVGT [SDHA_Y629_Y629F] ... not satisfied
CTTIHYNYMSN [TP53_Y234_C238S] ... not satisfied
EAESWYQTKYE [KRT75_Y342] ... satisfied
TAALWYIFSHT [ENG_Y612_YF] ... satisfied
SLMGCYNLTFM [HS6ST3_Y323_V320M] ... satisfied

Qu. API: above_or_equal(metric=phosphorylation enrichment, cutoff=0.6) for item ADRNHYRRYRR [YBX1_Y145_P149R]
Ans. not satisfied

Qu. Here is the next sequence: VHNLDYYKQTT [FGFR3_Y647_K650Q]
Ans. satisfied

Qu. Here is the next sequence: VNKLVYENING [FRS2_Y306]
Ans. satisfied

====

TARGET OR SYSTEM: EPHB1 (UniProt P54762)
EXPERIMENT: phosphorylation enrichment, bacterial display (enrichment ratio); higher = better substrate or ligand; peptides without Tyr show the background
Would you mind classing the entries by phosphorylation enrichment? Ranges: low = under 0.5, medium = from 0.5 up to 0.7, high = 0.7 and over

Reference set (4 entries):
SDMGQYQCLVF [AXL_Y115_T112M] ... high
YEEDSYVTRSQ [RET_Y905_K907T] ... medium
HSGVSYYINLC [IGF2R_Y2024_N2020S] ... high
ANVIHYFPTQA [SLC25A4_Y81_R80H] ... medium

Alright, here's another sequence for you.
Qu. // bin(item) where item = NTADYYDLYGG [PTPN11_Y63_G60A]
Ans. high

====

phosphorylation enrichment values for the sequences below.
TARGET OR SYSTEM: Fes (UniProt P07332)
Sequence (P07332 whole entry, looked up): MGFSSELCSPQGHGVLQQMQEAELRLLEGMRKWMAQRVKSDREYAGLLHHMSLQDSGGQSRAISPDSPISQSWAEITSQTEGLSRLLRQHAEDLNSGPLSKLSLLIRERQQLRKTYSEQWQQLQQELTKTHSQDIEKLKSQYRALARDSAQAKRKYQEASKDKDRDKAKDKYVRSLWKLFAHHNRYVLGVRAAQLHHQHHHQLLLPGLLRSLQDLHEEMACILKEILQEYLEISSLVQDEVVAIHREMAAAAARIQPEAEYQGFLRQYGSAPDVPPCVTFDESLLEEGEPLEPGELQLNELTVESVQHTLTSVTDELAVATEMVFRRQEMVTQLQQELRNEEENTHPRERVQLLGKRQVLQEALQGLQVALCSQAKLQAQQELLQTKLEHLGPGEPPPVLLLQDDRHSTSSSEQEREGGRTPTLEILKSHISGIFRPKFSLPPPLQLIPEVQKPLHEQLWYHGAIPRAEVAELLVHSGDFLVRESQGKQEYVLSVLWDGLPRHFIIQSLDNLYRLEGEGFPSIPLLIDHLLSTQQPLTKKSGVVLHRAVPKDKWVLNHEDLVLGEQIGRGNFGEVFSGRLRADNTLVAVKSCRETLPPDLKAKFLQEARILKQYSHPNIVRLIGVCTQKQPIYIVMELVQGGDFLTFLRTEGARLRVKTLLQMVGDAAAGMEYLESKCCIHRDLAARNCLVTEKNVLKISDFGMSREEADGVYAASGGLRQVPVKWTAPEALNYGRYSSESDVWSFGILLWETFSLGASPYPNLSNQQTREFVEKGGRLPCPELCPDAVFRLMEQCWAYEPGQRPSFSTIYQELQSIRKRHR
EXPERIMENT: phosphorylation enrichment, bacterial display (enrichment ratio); higher = better substrate or ligand; peptides without Tyr show the background
I'd appreciate a reply containing only the number, no unit.

Some sequences with known phosphorylation enrichment results, for comparison:
ADYYDYGHGLS [KHDRBS3_Y304] ... 1.11
RIVEIYSRRLR [GCH1_Y175_Q180R] ... 0.623
YMRGMYFRMTD [PLA2G6_Y541_K545T] ... 1.16

Qu. Could you tell me which phosphorylation enrichment is on file for GIVEDYRPPFC [ACVRL1_Y421_Y426C] ?
Ans. 1.01

Qu. Here is the next sequence: NTGVFYDLFGG [PTPN11_Y63_D61V_YF]
Ans. 1.12

Qu. Here is the next sequence: SENPKYPEVGD [TMEM43_Y233]
Ans. 1.2

====

TARGET OR SYSTEM: MERTK (UniProt Q12866)
Sequence (Q12866 whole entry, looked up): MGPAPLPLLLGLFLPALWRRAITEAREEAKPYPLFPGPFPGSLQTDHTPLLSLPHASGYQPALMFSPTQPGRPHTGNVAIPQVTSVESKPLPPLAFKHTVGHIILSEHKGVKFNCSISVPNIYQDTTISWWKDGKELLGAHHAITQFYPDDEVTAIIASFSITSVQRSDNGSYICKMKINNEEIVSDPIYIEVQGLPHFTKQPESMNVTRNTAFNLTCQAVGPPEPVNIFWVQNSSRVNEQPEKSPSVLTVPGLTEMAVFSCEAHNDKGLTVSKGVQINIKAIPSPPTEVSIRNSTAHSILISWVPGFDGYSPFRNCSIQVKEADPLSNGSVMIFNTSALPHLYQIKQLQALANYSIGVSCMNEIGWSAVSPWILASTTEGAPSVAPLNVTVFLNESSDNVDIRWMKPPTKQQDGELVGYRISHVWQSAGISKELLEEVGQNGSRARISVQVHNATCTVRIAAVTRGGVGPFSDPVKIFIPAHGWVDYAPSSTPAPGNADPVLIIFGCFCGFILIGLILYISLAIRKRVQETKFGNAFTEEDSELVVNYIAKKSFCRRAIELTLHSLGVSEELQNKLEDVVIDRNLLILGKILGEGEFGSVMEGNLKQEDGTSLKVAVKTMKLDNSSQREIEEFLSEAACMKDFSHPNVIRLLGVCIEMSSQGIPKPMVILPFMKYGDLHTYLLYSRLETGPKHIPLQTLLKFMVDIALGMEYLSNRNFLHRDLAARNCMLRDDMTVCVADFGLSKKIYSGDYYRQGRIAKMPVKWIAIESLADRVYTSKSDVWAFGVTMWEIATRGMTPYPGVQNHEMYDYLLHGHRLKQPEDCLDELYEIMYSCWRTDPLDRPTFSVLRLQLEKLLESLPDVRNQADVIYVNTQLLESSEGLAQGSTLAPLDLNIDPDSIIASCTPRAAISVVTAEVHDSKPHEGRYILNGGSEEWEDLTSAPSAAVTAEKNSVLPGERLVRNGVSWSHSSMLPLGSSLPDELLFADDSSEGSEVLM
EXPERIMENT: phosphorylation enrichment, bacterial display (enrichment ratio); higher = better substrate or ligand; peptides without Tyr show the background
phosphorylation enrichment values for the sequences below.
I'd appreciate a reply containing only the number, no unit.

Some sequences with known phosphorylation enrichment results, for comparison:
YEEDSYVTRSQ [RET_Y905_K907T] ... 0.468
LYEDHYLLGTS [ASS1_Y87_R86H] ... 2.08
RKTAKYLLKGE [CDH5_Y82_N79T] ... 0.832
RRNVFYFSFLL [PTEN_Y177_Y174N_YF] ... 0.937

Qu. Could you tell me which phosphorylation enrichment is on file for NLFIEYPTGSG [IRF2BPL_Y423_K418N] ?
Ans. 0.519

Qu. Here is the next sequence: INSLKYAFNVS [EIF2B5_Y583_I587V_YF]
Ans. 0.447

Qu. Here is the next sequence: LHAAAYQNALA [UQCRC2_Y182_R183Q]
Ans. 0.4

====

TARGET OR SYSTEM: Fes (UniProt P07332)
EXPERIMENT: phosphorylation enrichment, bacterial display (enrichment ratio); higher = better substrate or ligand; peptides without Tyr show the background
phosphorylation enrichment values for the sequences below.
I'd appreciate a reply containing only the number, no unit.

Some sequences with known phosphorylation enrichment results, for comparison:
TTPAVYARVAK [CTRB2_Y246] ... 0.583
KNNDGYIDYAE [MCFD2_Y135] ... 1.13
RRIFSYRGHLW [VHL_Y112_H110Y_YF] ... 0.897
FVSLIYTNFEA [GSTP1_Y109_I105V_YF] ... 1.46
ECIEFYELDKK [PMM2_Y145_R141C] ... 1.13
ANVIHYFPTQA [SLC25A4_Y81_R80H] ... 0.652
GNLLIYTEFGN [HGD_Y166_K171N] ... 1.15
RDLEQYVNNVN [PCDH19_Y1097] ... 1.01
GCLSKYSGVFS [TUBGCP6_Y1624_V1621L] ... 1.01
PNRILYRDFRQ [MYH7_Y715_G716R] ... 0.778

Qu. Could you tell me which phosphorylation enrichment is on file for YQLENYCNGGG [INS_Y108] ?
Ans. 0.812

Qu. Here is the next sequence: ITGNGYYFRVF [MYBPC3_Y1135_I1131T]
Ans. 1.08

Qu. Here is the next sequence: CTTIHYNFMRN [TP53_Y234_C238R_YF]
Ans. 1.07

====

TARGET OR SYSTEM: Grb2 SH2 (UniProt P62993)
Sequence (P62993 whole entry, looked up): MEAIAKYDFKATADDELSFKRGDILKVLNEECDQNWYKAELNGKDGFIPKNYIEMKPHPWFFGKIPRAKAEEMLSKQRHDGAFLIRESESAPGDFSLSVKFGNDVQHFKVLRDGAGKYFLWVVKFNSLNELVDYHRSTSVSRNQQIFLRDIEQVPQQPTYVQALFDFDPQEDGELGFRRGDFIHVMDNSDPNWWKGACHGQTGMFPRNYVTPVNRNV
EXPERIMENT: SH2 binding enrichment of the phosphorylated peptide, bacterial display (enrichment ratio); higher = better substrate or ligand; peptides without Tyr show the background
Would you mind labelling by SH2 binding enrichment? At or over 0.8 is condition met, under is condition not met.

Reference set (3 entries):
ASRKYYAMKIL [AKT3_Y174_G171R] ... condition met
DTSKMYIPHTD [EXPH5_Y782] ... condition not met
YQNGMYGLHQD [SGSH_Y89_H84Y] ... condition met

Qu. API: above_or_equal(metric=SH2 binding enrichment, cutoff=0.8) for item ITNHIYTWVDP [DFNB31_Y234_V229I]
Ans. condition met

Qu. Here is the next sequence: DFFDLYGGEKF [PTPN11_Y66_YF]
Ans. condition met

Qu. Here is the next sequence: SSQHRYSTPHA [RAF1_Y232]
Ans. condition not met

Qu. Here is the next sequence: LHRAHYDLHHT [AHSG_Y314_R317H]
Ans. condition met

Qu. Here is the next sequence: SVTCTSSPALN [TP53_Y126_Y126S]
Ans. condition not met
